Assay: In vitro rat plasma stability assay, formation of tafamidis
Type: in vitro ADME
Conditions: 37° C., 2 µM test compound
Description: A stability assay in plasma (rat or human) was used to evaluate the ability of a compound provided herein to convert to an active TTR stabilizer. The test compound was added to plasma and incubated at 37° C. in a water bath at a concentration of 2 µM. […] After centrifugation, an aliquot of supernatant was analyzed by LC-MS/MS. The percentage of formation of active agent was calculated at each time point.
Where a name gives a salt, the structure may show the parent alone.
property: Formation of tafamidis at 120 min

                                    compound         valuemeasured
 0  O=C(OC1CCNC1)c1ccc2nc(-c3cc(Cl)cc(Cl)c3)oc2c1 (stereo not drawn) [Compound 17, hydrochloride]         A (A is <25%)
 1  O=C(OC[C@H]1O[C@@H](O)C(O)[C@H](O)C1O)c1ccc2nc(-c3cc(Cl)cc(Cl)c3)oc2c1 (stereo partly drawn) [Compound 5]         A (A is <25%)
 2  CC(C)(C)OC(=O)N1CCC(OC(=O)c2ccc3nc(-c4cc(Cl)cc(Cl)c4)oc3c2)CC1 [Compound 12]         A (A is <25%)
 3  O=C(OCCCN1CCC1)c1ccc2nc(-c3cc(Cl)cc(Cl)c3)oc2c1 [Compound 39]         A (A is <25%)
 4  CN1CCC(OC(=O)c2ccc3nc(-c4cc(Cl)cc(Cl)c4)oc3c2)CC1 [Compound 11]         A (A is <25%)
 5  CC(OC(=O)c1ccc2nc(-c3cc(Cl)cc(Cl)c3)oc2c1)C1CCOC1 (stereo not drawn) [Compound 161]  B (B is ≥25 to <50%)
 6  CS(=O)(=O)N1CCC(OC(=O)c2ccc3nc(-c4cc(Cl)cc(Cl)c4)oc3c2)C1 (stereo not drawn) [Compound 139]         A (A is <25%)
 7  CC(C)(C)OC(=O)N[C@@H](Cc1cccc(OC(=O)c2ccc3nc(-c4cc(Cl)cc(Cl)c4)oc3c2)c1)C(=O)O [Compound 20]  B (B is ≥25 to <50%)
 8  CN(CCO)C(=O)c1ccc2nc(-c3cc(Cl)cc(Cl)c3)oc2c1 [Compound 65]         A (A is <25%)
 9  O=C(NCCO)c1ccc2nc(-c3cc(Cl)cc(Cl)c3)oc2c1 [Compound 64]         A (A is <25%)
10  O=C(OCCC[n+]1ccccc1)c1ccc2nc(-c3cc(Cl)cc(Cl)c3)oc2c1.[Br-] [Compound 3]         A (A is <25%)
11  CC(C)(C)OC(=O)N[C@@H](Cc1ccc(OC(=O)c2ccc3nc(-c4cc(Cl)cc(Cl)c4)oc3c2)cc1)C(=O)O [Compound 22]         D (D is ≥75%)
12  CC(C)(C)OC(=O)NCCOC(=O)c1ccc2nc(-c3cc(Cl)cc(Cl)c3)oc2c1 [Compound 10]         A (A is <25%)
13  O=C(OC1CC2CCC1CN2)c1ccc2nc(-c3cc(Cl)cc(Cl)c3)oc2c1 (stereo not drawn) [Compound 27, hydrochloride]         A (A is <25%)
14  CN(CCOC(=O)c1ccc2nc(-c3cc(Cl)cc(Cl)c3)oc2c1)C(=O)OC(C)(C)C [Compound 8]         D (D is ≥75%)
15  CC(C)(C)OC(=O)N[C@H](Cc1ccc(OC(=O)c2ccc3nc(-c4cc(Cl)cc(Cl)c4)oc3c2)cc1)C(=O)OCc1ccccc1 [Compound 69]         A (A is <25%)
16  CN(C)C(CO)COC(=O)c1ccc2nc(-c3cc(Cl)cc(Cl)c3)oc2c1 (stereo not drawn) [Compound 55]         D (D is ≥75%)
17  O=C(OCCc1ncc[nH]1)c1ccc2nc(-c3cc(Cl)cc(Cl)c3)oc2c1 [Compound 153]  B (B is ≥25 to <50%)
